System: MDA-MB-231 breast
experiment-description: NCI-60 one-dose screen, 48 h
test-settings: 10 µM unless noted
This is part of a sample that, as a whole, favours compounds with a hit. Of some 83,000 tested, about 20% had one in any assay. Activity calls are given as the source filed them. Rule for the calls: active = growth percent below 10; inactive = the rest.
A correct response names exactly one class from T = active, F = inactive

Give the logged outcome of this assay for the following molecule: CCCc1cc2cc(-n3nc(CC)c4c3CC(C)(C)CC4=O)cc(NC3CCC(O)CC3)c2c(=O)[nH]1 (centres undefined)
T

How about `CCCCc1nc2c(N)nc3ccccc3c2n1Cc1cccc(CN)c1` ?
F

How about `O=C(CSc1nc2ccccc2c(=O)n1-c1ccc(S(=O)(=O)Nc2ccc(Cl)nn2)cc1)Nc1ccc(S(=O)(=O)Nc2ccc(Cl)nn2)cc1` ?
F

How about `Cc1[nH]c(C(=O)Nc2ccc(S(=O)(=O)N3CCCCC3)cc2OCCOCCOCCOCCOCCOCCOCCOCCOCCOc2cc(S(=O)(=O)N3CCCCC3)ccc2NC(=O)c2[nH]c(C)c3c2CCCCC3=O)c2c1C(=O)CCCC2` ?
F
